Molecular target: Adenosine receptor A1 (Homo sapiens) (UniProt P30542)
Assay: Agonist activity human adenosine A1 receptor expressed in CHO cell membranes assessed as stimulation of [35S]GTPgammaS binding preincubated for 30 mins followed by radioligand addition measured after 90 mins by beta scintillation counting analysis relative to N6-cyclopentyladenosine
Type: functional
measured.parameter: Emax (%)
Just the number in %, nothing appended.

Guide cases for Emax, answers given:
test.smiles: N#Cc1c(N)nc(SCc2csc(-c3ccc(I)cc3)n2)nc1-c1ccc2c(c1)OCO2
measured.result: 82

test.smiles: COc1ccc(-c2nc(CSc3nc(N)c(C#N)c(-c4ccc5c(c4)OCO5)n3)cs2)cc1
measured.result: 104

test.smiles: CC(=O)Nc1ccc(-c2nc(SCc3csc(-c4ccc(Cl)cc4)n3)nc(N)c2C#N)cc1
measured.result: 112

test.smiles: N#Cc1c(N)nc(SCc2csc(-c3ccc(Cl)cc3)n2)nc1-c1ccc2c(c1)OCO2
measured.result: 71

test.smiles: N#Cc1c(N)nc(SCc2csc(-c3ccc(Cl)cc3)n2)nc1-c1ccc(OCCO)cc1
measured.result: 99

So what's the measured Emax for this one? N#Cc1c(N)nc(SCc2csc(N3CCOCC3)n2)nc1-c1ccc2c(c1)OCO2
65

So what's the measured Emax for this one? N#Cc1c(N)nc(SCc2csc(-c3ccc(Br)cc3)n2)nc1-c1ccc2c(c1)OCO2
60

So what's the measured Emax for this one? N#Cc1c(N)nc(SCc2csc(-c3ccccc3)n2)nc1-c1ccc2c(c1)OCO2
84

====

Molecular target: Adenosine receptor A2a (Homo sapiens)
Assay: Displacement of [3H]ZM241385 from human adenosine A2A receptor expressed in HEK293 cell membranes at 1 uM after 2 hrs by beta scintillation counting analysis relative to control
Form field: inhibition (one value per entry).
Just the number in %, nothing appended.

Guide cases for inhibition, answers given:
test.smiles: N#Cc1c(N)nc(SCc2csc(-c3ccc(I)cc3)n2)nc1-c1ccc2c(c1)OCO2
inhibition [%]: 2.5

test.smiles: N#Cc1c(N)nc(SCc2csc(-c3ccc(Br)cc3)n2)nc1-c1ccc2c(c1)OCO2
inhibition [%]: 2.9

test.smiles: COc1ccc(-c2nc(CSc3nc(N)c(C#N)c(-c4ccc5c(c4)OCO5)n3)cs2)cc1
inhibition [%]: 3.2

So what's the measured inhibition for this one? N#Cc1c(N)nc(SCc2csc(-c3ccc(Cl)cc3)n2)nc1-c1ccc(OCCO)cc1
10

So what's the measured inhibition for this one? N#Cc1c(N)nc(SCc2csc(N3CCOCC3)n2)nc1-c1ccc2c(c1)OCO2
21

====

Target: Adenosine receptor A1 (Homo sapiens)
Sequence (whole entry): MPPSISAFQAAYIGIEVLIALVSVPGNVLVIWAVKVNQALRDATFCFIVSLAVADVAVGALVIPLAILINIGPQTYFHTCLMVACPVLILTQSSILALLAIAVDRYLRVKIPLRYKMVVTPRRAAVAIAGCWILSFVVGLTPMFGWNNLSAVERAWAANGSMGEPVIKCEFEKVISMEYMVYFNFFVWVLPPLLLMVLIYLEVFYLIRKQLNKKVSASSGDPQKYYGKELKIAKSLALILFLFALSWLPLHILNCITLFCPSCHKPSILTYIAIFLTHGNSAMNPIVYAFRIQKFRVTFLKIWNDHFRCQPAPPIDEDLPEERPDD
Test: Displacement of [3H]DPCPX from human adenosine A1 receptor expressed in CHO cell membranes at 1 uM after 1 hr by beta scintillation counting analysis relative to control
measured.parameter: inhibition (%)
Just the number in %, nothing appended.

test.smiles: CCOc1ccc(-c2nc(SCc3csc(-c4ccc(Cl)cc4)n3)nc(N)c2C#N)cc1
inhibition, %: 49

test.smiles: Cc1ccc(-c2nc(SCc3csc(-c4ccc(Cl)cc4)n3)nc(N)c2C#N)cc1
inhibition, %: 44

test.smiles: COc1ccc(-c2nc(SCc3csc(-c4ccc(Cl)cc4)n3)nc(N)c2C#N)cc1
inhibition, %: 73

Then there is this molecule:
So what's the measured inhibition for this one? N#Cc1c(N)nc(SCc2csc(-c3ccc(Cl)c(Cl)c3)n2)nc1-c1ccc2c(c1)OCO2
23

====

Form field: TIME (one value per entry).
Target: Adenosine receptor A1 (Homo sapiens)
Sequence (whole entry): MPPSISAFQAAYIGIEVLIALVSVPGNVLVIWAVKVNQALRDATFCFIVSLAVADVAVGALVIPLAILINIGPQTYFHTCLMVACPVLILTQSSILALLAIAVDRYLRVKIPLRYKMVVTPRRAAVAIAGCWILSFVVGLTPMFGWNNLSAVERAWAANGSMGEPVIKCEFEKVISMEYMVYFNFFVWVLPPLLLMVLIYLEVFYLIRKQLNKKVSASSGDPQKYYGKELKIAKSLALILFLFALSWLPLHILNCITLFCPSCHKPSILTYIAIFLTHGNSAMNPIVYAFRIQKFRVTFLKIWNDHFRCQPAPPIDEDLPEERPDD
Assay: Displacement of [3H]DPCPX from human adenosine A1 receptor expressed in CHO cell membranes assessed as residence time on receptor at 10 times Ki after 90 mins by competition association assay
Just the number in h, nothing appended.

test.smiles: N#Cc1c(N)nc(SCc2csc(-c3ccccc3Cl)n2)nc1-c1ccc2c(c1)OCO2
units.symbol: h
measured.result: 0.588
--
test.smiles: N#Cc1c(N)nc(SCc2csc(N3CCOCC3)n2)nc1-c1ccc2c(c1)OCO2
units.symbol: h
measured.result: 0.02
--
test.smiles: N#Cc1c(N)nc(SCc2csc(-c3ccc(Br)cc3)n2)nc1-c1ccc2c(c1)OCO2
units.symbol: h
measured.result: 0.983
--
test.smiles: N#Cc1c(N)nc(SCc2csc(-c3ccc(Cl)cc3)n2)nc1-c1ccccc1
units.symbol: h
measured.result: 0.538
--
test.smiles: N#Cc1c(N)nc(SCc2csc(-c3cccc(Cl)c3)n2)nc1-c1ccc2c(c1)OCO2
units.symbol: h
measured.result: 0.5

Then there is this compound:
So what's the measured TIME for this one? N#Cc1c(N)nc(SCc2coc(-c3cccc(F)c3)n2)nc1-c1ccc2c(c1)OCO2
0.0508

====

Form field: inhibition (one value per entry).
Target: Adenosine receptor A3 (Homo sapiens)
Assay: Displacement of [3H]PSB11 from human adenosine A3 receptor expressed in CHO cell membranes at 1 uM after 2 hrs by beta scintillation counting analysis relative to control
Just the number in %, nothing appended.

Guide cases for inhibition, answers given:
test.smiles: N#Cc1c(N)nc(SCc2csc(-c3ccc(I)cc3)n2)nc1-c1ccc2c(c1)OCO2
measured.parameter: inhibition
measured.result: 9

test.smiles: CC(=O)Nc1ccc(-c2nc(SCc3csc(-c4ccc(Cl)cc4)n3)nc(N)c2C#N)cc1
measured.parameter: inhibition
measured.result: 5.5

test.smiles: COc1ccc(-c2nc(CSc3nc(N)c(C#N)c(-c4ccc5c(c4)OCO5)n3)cs2)cc1
measured.parameter: inhibition
measured.result: 11

So what's the measured inhibition for this one? N#Cc1c(N)nc(SCc2csc(N3CCOCC3)n2)nc1-c1ccc2c(c1)OCO2
18

So what's the measured inhibition for this one? N#Cc1c(N)nc(SCc2cscn2)nc1-c1ccc2c(c1)OCO2
35

So what's the measured inhibition for this one? N#Cc1c(N)nc(SCc2csc(-c3ccccc3)n2)nc1-c1ccc2c(c1)OCO2
24

So what's the measured inhibition for this one? N#Cc1c(N)nc(SCc2csc(-c3ccc(Br)cc3)n2)nc1-c1ccc2c(c1)OCO2
-1.8

So what's the measured inhibition for this one? N#Cc1c(N)nc(SCc2csc(-c3ccc(Cl)cc3)n2)nc1-c1ccc(OCCO)cc1
3

So what's the measured inhibition for this one? N#Cc1c(N)nc(SCc2csc(-c3ccc(Cl)cc3)n2)nc1-c1ccc2c(c1)OCO2
4.5

====

Target: Adenosine receptor A2b (Homo sapiens) (UniProt P29275)
Sequence (P29275 whole entry): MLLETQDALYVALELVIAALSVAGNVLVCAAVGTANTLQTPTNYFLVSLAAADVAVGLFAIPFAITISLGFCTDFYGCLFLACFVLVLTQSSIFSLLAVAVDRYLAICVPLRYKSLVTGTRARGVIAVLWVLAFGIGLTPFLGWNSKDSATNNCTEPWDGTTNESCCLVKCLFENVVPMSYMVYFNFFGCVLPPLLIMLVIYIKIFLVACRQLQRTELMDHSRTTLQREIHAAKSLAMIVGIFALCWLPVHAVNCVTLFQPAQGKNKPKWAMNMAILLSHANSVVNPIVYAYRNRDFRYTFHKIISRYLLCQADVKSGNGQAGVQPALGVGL
Assay: Displacement of [3H]PSB603 from human adenosine A2B receptor expressed in CHO cell membranes at 1 uM after 2 hrs by beta scintillation counting analysis relative to control
Form field: inhibition (one value per entry).
Just the number in %, nothing appended.

test.smiles: N#Cc1c(N)nc(SCc2csc(-c3ccccc3)n2)nc1-c1ccc2c(c1)OCO2
test.target: Adenosine receptor A2b (Homo sapiens) (UniProt P29275)
inhibition, %: 20
//
test.smiles: CC(=O)Nc1ccc(-c2nc(SCc3csc(-c4ccc(Cl)cc4)n3)nc(N)c2C#N)cc1
test.target: Adenosine receptor A2b (Homo sapiens) (UniProt P29275)
inhibition, %: 2.5
//
test.smiles: COc1ccc(-c2nc(CSc3nc(N)c(C#N)c(-c4ccc5c(c4)OCO5)n3)cs2)cc1
test.target: Adenosine receptor A2b (Homo sapiens) (UniProt P29275)
inhibition, %: 3.5
//
test.smiles: N#Cc1c(N)nc(SCc2csc(N3CCOCC3)n2)nc1-c1ccc2c(c1)OCO2
test.target: Adenosine receptor A2b (Homo sapiens) (UniProt P29275)
inhibition, %: 12
//
test.smiles: N#Cc1c(N)nc(SCc2csc(-c3ccc(Br)cc3)n2)nc1-c1ccc2c(c1)OCO2
test.target: Adenosine receptor A2b (Homo sapiens) (UniProt P29275)
inhibition, %: 1.7
//
test.smiles: N#Cc1c(N)nc(SCc2csc(-c3ccc(Cl)cc3)n2)nc1-c1ccc2c(c1)OCO2
test.target: Adenosine receptor A2b (Homo sapiens) (UniProt P29275)
inhibition, %: 0

So what's the measured inhibition for this one? N#Cc1c(N)nc(SCc2csc(-c3ccc(Cl)cc3)n2)nc1-c1ccc(OCCO)cc1
3.5

So what's the measured inhibition for this one? N#Cc1c(N)nc(SCc2csc(-c3ccc(I)cc3)n2)nc1-c1ccc2c(c1)OCO2
7.5

Origin of the recorded values: ChEMBL document CHEMBL3232854
